- System: P12-Ichikawa
- procedure.details: cell viability relative to DMSO control; higher = less cytotoxic
- run.conditions: RPMI 5 mM glucose + 10% dialyzed FBS; 48 h; 0.0211 µM
observed.property: cell viability
Field note: include the unit after the figure.

CN(C)C1=C(Br)C=C(C=C1)C\2NC3=C(\C4=C2C(=O)CC(C)(C)C4)C5=CC=CC=C5C=C3 (configuration not stated) :: 113%
COc1cc(/C=C/C(=O)O)ccc1O :: 94.1%
N#C/C(C(=O)c1ccc(Cl)cc1Cl)=C1/NC(=O)c2ccc(Cl)cc2N1 :: 110%
COC1=CC=C2CN(C)CC[C@@]34\C=C/[C@H](O)C[C@@H]3OC1=C24 :: 117%
N=C1N[C@H]2[C@H](CS[C@H]2CCCCC(=O)O)N1 :: 129%

Req: Identify measured cell viability associated with OC1=CC2=C(C(=C1)O)C(=O)\C(=C(/O2)C3=CC(=C(O)C=C3)O)O
Resp: 103%

Req: Identify measured cell viability associated with OC[C@H]1O[C@@H]2[C@@H](OC\3=N\C(=N)\C=C/[N@@]23)[C@@H]1O
Resp: 117%

Req: Identify measured cell viability associated with CN1CCN(C(=O)O[C@H]2c3nccnc3C(=O)N2c2ccc(Cl)cn2)CC1
Resp: 105%

Req: Identify measured cell viability associated with c1ccc(-c2oc3ncnc(NC[C@@H]4CCCO4)c3c2-c2ccccc2)cc1
Resp: 113%

Req: Identify measured cell viability associated with Cc1onc(-c2ccccc2)c1C(=O)N[C@@H]1C(=O)N2[C@@H]1SC(C)(C)[C@@H]2C(=O)[O-].[Na+]
Resp: 139%

###

- Test system: NOMO1
- procedure.details: cell viability relative to DMSO control; higher = less cytotoxic
- run.conditions: HPLM + 10% dialyzed FBS; 48 h; 0.00234 µM
observed.property: cell viability (%)
The reply should contain only the number, in %.

A selection of reference data follows.
Cn1cc(C[C@@H](N)C(=O)O)c2ccccc21 :: 106
COC(=O)\C1=C\CCN(C)C1 :: 115
CCOc1cc(CC(=O)N[C@@H](CC(C)C)c2ccccc2N2CCCCC2)ccc1C(=O)O :: 120

Req: Identify measured cell viability associated with N[S+](=O)([O-])OC[C@@H]1C[C@@H](n2ccc3c(N[C@H]4CCc5ccccc54)ncnc32)C[C@@H]1O
Resp: 118

Req: Identify measured cell viability associated with OC1=CC2=C(C(=C1)O)C(=O)\C(=C(/O2)C3=CC(=C(O)C=C3)O)O
Resp: 104

Req: Identify measured cell viability associated with N#C/C(C(=O)c1ccc(Cl)cc1Cl)=C1/NC(=O)c2ccc(Cl)cc2N1
Resp: 108

Req: Identify measured cell viability associated with N#C/N=C(\NCCCCCCOc1ccc(Cl)cc1)Nc1ccncc1
Resp: 47.6

Req: Identify measured cell viability associated with CCOC(=O)\C1=C\[C@@H](OC(CC)CC)[C@H](NC(C)=O)[C@@H](N)C1
Resp: 86.1

###

- Test system: NOMO1
- procedure.details: cell viability relative to DMSO control; higher = less cytotoxic
- run.conditions: HPLM + 10% dialyzed FBS; 48 h; 0.19 µM
observed.property: cell viability (%)
The reply should contain only the number, in %.

COc1cccc2c1[C@]13CCN(CC4CC4)[C@H](C2)[C@]1(OC)CCC(=O)C3 :: 119
CC/1=C(/N2[C@H](SC1)[C@H](NC(=O)C(N)C3=CC=CC=C3)C2=O)C(O)=O (some centres undefined) :: 136
C#CCN[C@@H]1CCc2ccccc21.CS(=O)(=O)O :: 90.3
CC(C)OC1=CC=C2C(=C1)O\C=C(/C2=O)C3=CC=CC=C3 :: 120

Please look at the following molecule next.
Req: Identify measured cell viability associated with COc1cc(CNC(=O)CCCC/C=C/C(C)C)ccc1O
Resp: 112

###

# cell viability per entry
- System: NOMO1
- procedure.details: cell viability relative to DMSO control; higher = less cytotoxic
- run.conditions: RPMI 5 mM glucose + 10% FBS; 48 h; 0.569 µM
The reply should contain only the number, in %.

Req: Identify measured cell viability associated with CC1(C)C(N(O)C(=O)Nc2ccc(Cl)cc2)N(c2ccc(Cl)cc2)C(=O)N1CC(=O)N/N=C/C=C/c1ccc([N+](=O)[O-])o1 (stereo not given)
Resp: 102

###

- Test system: P12-Ichikawa
- procedure.details: AUC of viability dose-response curve (% viability x log10 dose units); higher = less sensitive
- run.conditions: RPMI 5 mM glucose + 10% FBS; 48 h
observed.property: AUC of viability dose-response curve
// keep it numeric: no unit symbol after the value

COC(=O)\C1=C\CCN(C)C1 :: 470
CNC(=O)N1\N=C(\C2=CC=C(N)C=C2)C3=CC4=C(OCO4)C=C3CC1C (centres undefined) :: 447
NC(=O)c1ncn([C@@H]2O[C@H](CO)[C@@H](O)[C@H]2O)c1O :: 463

Req: Identify measured AUC of viability dose-response curve associated with OCCn1cc(-c2cnc3nnn(Cc4ccc5ncccc5c4)c3n2)cn1
Resp: 455

Req: Identify measured AUC of viability dose-response curve associated with NC(=O)Nc1cc(-c2cccc(F)c2)sc1C(=O)N[C@H]1CCCNC1
Resp: 325

Req: Identify measured AUC of viability dose-response curve associated with C1CCN2C[C@H]3C[C@H](\C=C/4CCCN[C@@H]34)[C@H]2C1
Resp: 457

###

- Test system: P12-Ichikawa
- procedure.details: cell viability relative to DMSO control; higher = less cytotoxic
- run.conditions: RPMI 5 mM glucose + 10% FBS; 48 h; 0.0632 µM
observed.property: cell viability (%)
The reply should contain only the number, in %.

A selection of reference data follows.
Cc1cccc(/C=N/Nc2cc(N3CCOCC3)nc(OCCc3ccccn3)n2)c1 :: 100
C[C@H]1O[C@H](C[C@H](O)[C@@H]1O)O[C@H]2[C@@H](O)C[C@@H](O[C@@H]2C)O[C@H]3[C@@H](O)C[C@@H](O[C@@H]3C)O[C@H]4CC[C@@]5(C)[C@H](CC[C@@H]6[C@@H]5C[C@@H](O)[C@]7(C)[C@H](CC[C@]67O)C/8=C/C(=O)OC8)C4 :: 86.5
COc1cc(/C=C/C(=O)O)ccc1O :: 88.5
CC(C)(O)c1cc2nc(-c3cnc(N)nc3)nc(N3CCOCC3)c2s1 :: 114
CO/N=C(/C(=O)N[C@@H]1C(=O)N2C(C(=O)O)=C(CSC(=O)c3ccco3)CS[C@H]12)c1csc(N)n1 :: 105
CCOC(=O)Nc1ccc(NCc2ccc(F)cc2)nc1N :: 118
CC(O)C1C2C(C)\C(=C(/N2C1=O)C(O)=O)SC3CNC(C3)C(=O)N(C)C (stereo unspecified) :: 82.3
CO/N=C(\C(=O)N[C@@H]1C(=O)N2C(C(=O)OCOC(=O)C(C)(C)C)=C(/C=C\c3scnc3C)CS[C@H]12)c1csc(N)n1 :: 101
C1CCN2C[C@H]3C[C@H](\C=C/4CCCN[C@@H]34)[C@H]2C1 :: 117
CC(C)(O)/C=C\C(=O)[C@](C)(O)[C@H]1[C@H](O)C[C@]2(C)[C@@H]3CC=C4[C@@H](C=C(O)C(=O)C4(C)C)[C@]3(C)C(=O)C[C@@]12C :: 97.9

Req: Fill: cell viability (P12-Ichikawa) for this compound Cc1ncc([N+](=O)[O-])n1CC(C)O (stereo unspecified)
Resp: 90.4

###

- System: NOMO1
- procedure.details: cell viability relative to DMSO control; higher = less cytotoxic
- run.conditions: HPLM + 10% dialyzed FBS; 48 h; 0.0211 µM
observed.property: cell viability (%)
The reply should contain only the number, in %.

A selection of reference data follows.
CC/1=C(/N2[C@H](SC1)[C@H](NC(=O)C(N)C3=CC=CC=C3)C2=O)C(O)=O (some centres undefined) :: 137
C#CCN[C@@H]1CCc2ccccc21.CS(=O)(=O)O :: 109
O.O.CCN1CCN(C(=O)N[C@H](C(=O)N[C@H]2[C@@H]3SC\C(=C(/N3C2=O)C(O)=O)CSC4=NN=N[N]4C)C5=CC=C(O)C=C5)C(=O)C1=O :: 29.4
C=CCc1ccc(O)c(-c2ccc(O)c(CC=C)c2)c1 :: 120
Cc1noc(-c2ccc(CSCCC(=O)O)cc2)c1NC(=O)OC(C)c1ccccc1Cl (centres undefined) :: 104
CC(C)Oc1ccc(C(=O)N[C@H](CNC(=O)CN(C)C)Cc2ccc(-c3cn4cccc([C@H](C)O)c4n3)cc2)cc1Cl :: 123
N=C1N[C@H]2[C@H](CS[C@H]2CCCCC(=O)O)N1 :: 120
COC1=CC=C2/C3=N/CCN3\C(=N/C2=C1OC)NC(=O)C4=CC=CN=C4 :: 131

Req: Identify measured cell viability associated with C1CCN2C[C@H]3C[C@H](\C=C/4CCCN[C@@H]34)[C@H]2C1
Resp: 133

Where do these numbers come from? They come from the supplement of paper PMC11451515.
